- Experimental target: T1, Growth and Differentiation Factor-8 (GDF8) (UniProt O14793 267-375)
- T1 construct: also called myostatin
- T1 sequence (looked up): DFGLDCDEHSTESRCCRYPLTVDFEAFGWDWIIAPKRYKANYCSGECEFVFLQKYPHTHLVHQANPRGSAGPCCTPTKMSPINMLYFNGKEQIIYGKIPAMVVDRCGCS
- Method description: BiaCore; receptor-Fc captured by anti-hFc antibody, ligand injected
pKd: −log10 of the molar value.
We use 9 as the dividing line for pKd: on or above the line is yes (1), below is no (0).

Sample answers from the record:
Qu. Record ActRIIB(K74A 20-134)-hFc (Fc fusion, not shown: linker (if any) and human Fc (hFc)) GRGEAETRECIYYNANWELERTNQSGLERCEGEQDKRLHCYASWRNSSGTIELVAKGCWLDDFNCYDRQECVATEENPQVYFCCCEGNFCNERFTHLPEAGGPEVTYEPPPTAPT ; criterion: pKd no lower than 9. Met?
Ans. yes (1)

Qu. Record ActRIIB(R64K 20-129)-hFc (Fc fusion, not shown: linker (if any) and human Fc (hFc)) GRGEAETRECIYYNANWELERTNQSGLERCEGEQDKRLHCYASWKNSSGTIELVKKGCWLDDFNCYDRQECVATEENPQVYFCCCEGNFCNERFTHLPEAGGPEVTYEPP ; criterion: pKd no lower than 9. Met?
Ans. no (0)

Qu. Record ActRIIB(R64K 20-134)-hFc (Fc fusion, not shown: linker (if any) and human Fc (hFc)) GRGEAETRECIYYNANWELERTNQSGLERCEGEQDKRLHCYASWKNSSGTIELVKKGCWLDDFNCYDRQECVATEENPQVYFCCCEGNFCNERFTHLPEAGGPEVTYEPPPTAPT ; criterion: pKd no lower than 9. Met?
Ans. yes (1)

Qu. Record ActRIIB(L79E 20-134)-hFc (Fc fusion) GRGEAETRECIYYNANWELERTNQSGLERCEGEQDKRLHCYASWRNSSGTIELVKKGCWEDDFNCYDRQECVATEENPQVYFCCCEGNFCNERFTHLPEAGGPEVTYEPPPTAPTGGGTHTCPPCPAPELLGGPSVFLFPPKPKDTLMISRTPEVTCVVVDVSHEDPEVKFNWYVDGVEVHNAKTKPREEQYNSTYRVVSVLTVLHQDWLNGKEYKCKVSNKALPVPIEKTISKAKGQPREPQVYTLPPSREEMTKNQVSLTCLVKGFYPSDIAVEWESNGQPENNYKTTPPVLDSDGSFFLYSKLTVDKSRWQQGNVFSCSVMHEALHNHYTQKSLSLSPGK ; criterion: pKd no lower than 9. Met?
Ans. no (0)

***
Qu. Record ActRIIB(L79D 20-134)-hFc (Fc fusion, also called GDF Trap) GRGEAETRECIYYNANWELERTNQSGLERCEGEQDKRLHCYASWRNSSGTIELVKKGCWDDDFNCYDRQECVATEENPQVYFCCCEGNFCNERFTHLPEAGGPEVTYEPPPTAPTGGGTHTCPPCPAPELLGGPSVFLFPPKPKDTLMISRTPEVTCVVVDVSHEDPEVKFNWYVDGVEVHNAKTKPREEQYNSTYRVVSVLTVLHQDWLNGKEYKCKVSNKALPVPIEKTISKAKGQPREPQVYTLPPSREEMTKNQVSLTCLVKGFYPSDIAVEWESNGQPENNYKTTPPVLDSDGSFFLYSKLTVDKSRWQQGNVFSCSVMHEALHNHYTQKSLSLSPGK ; criterion: pKd no lower than 9. Met?
Ans. no (0)
